Cited source for all entries: the nanobody polyreactivity screen of Harvey et al. (2022)

procedure_summary: yeast display, Sf9 membrane polyspecificity reagent, FACS + sequencing; frameworks hold sequencing errors

ordered_residues: QVQLVESGGGLVQAGGSLRLSCAASGSIFGYNTMGWYRQAPGKERELVAAISWNGGNTYYADSVKGRFTISRDNAKNTVYLQMNSLKPEDTEVYYCNARTRSRSRGFDSWGQGTQVTVSS
polyreactivity (PSR sort gate): high polyreactivity

ordered_residues: QVQLLESGGGLVQAGGSLRLSCAASGSTFNVYAMGWYRQAPGKERELVAAINWSGGNTYYADSVKGRFTISRDNAKNTVYLQMNSLNPEDTAVDYCNADGFVGTPSVDYDYWGQGTQVTVSS
polyreactivity (PSR sort gate): low polyreactivity

ordered_residues: QVQLVESGGGLVQAGGSLRLSCAASGRILSWYAMGWYRQAPGKVRELVAAIDSGGRTNYADSVKGRFTISRDNAKNTVYLQMNSLKPEDTAVYYCAKEGYWPRYWERYDYWGQGTQVTLSS
polyreactivity (PSR sort gate): low polyreactivity

ordered_residues: QDQLVESGGGLVQAGGSLRLSCAASGRIFVPYSKGWYRQATGKERELVAAISLRGGTTYYSDSVKGRFTISRDNAKNTVYLQMNSLKPEDTAVYYCAARGYVSVWRPYHWFVAGDYWGQGTQVTVSS
polyreactivity (PSR sort gate): high polyreactivity

ordered_residues: QVQLVESGGGLVQAGCSLRLSCAASGFTFAGNAMGWYRQAPGKERELVAAISRRGGSTYYADSVKGRFTISRDNAKNTVYLKMNSLKPEDNAVYYCAAVYRYDYDYWGQGNQVTVSS
polyreactivity (PSR sort gate): high polyreactivity

ordered_residues: QVQLVESGGGLVQAGGSLRLSCAASGFIFRAYAMGWYRQAPGKERELVAAISGSGGSTYYADTVKGRFTISRDNAMNTVDLQMNSLKPEDTAVYYCNKYVGYYAYNYNYWGQGTQVTVSS
polyreactivity (PSR sort gate): high polyreactivity

ordered_residues: QVQLVESGGGLVQAGGSLRLSCAASGGIFDTNAMGWYRQAPGKEREFVAAITGSGGSTYYADSVKGRFTISRDNAKNTVYLQMNSLKPEDTAVYYCAAPLSYYWVYIVRYGYDYWGQGTQVTVSS
polyreactivity (PSR sort gate): low polyreactivity

ordered_residues: QVQLVETGGGLVQAGGSLRLSCAASGRIFYLYAMGWYRQAPGKEWELVAAISSSGGSTYYADSVKGRFTISRDNAKTTVYLQMNSLKPEDTAVYYCNARRRTVPYRYDYWGQGTQVTVSS
polyreactivity (PSR sort gate): high polyreactivity

ordered_residues: QVQLVESGGGIVQAGGSLRLSCAASGLIFSVNAMGWYRQAPGKERELVASISVSGGSTYYADSVKGRFTISRDNAKNTVYLQMNSLKPEDTAVYYCNTVPLAGEYSTDLRYDYWGQGTQVTVSS
polyreactivity (PSR sort gate): low polyreactivity

ordered_residues: HVQLVESGGGLVQAGGSLRLSCAASGSTFTYYAMGWYRQAPGKERELVAAITGSDGRTYYADSVKGRFTISRDNAKKTVYLEMNSLKPEDTAVYYCATDVPIREIDEFGYWGQGTQVTVSS
polyreactivity (PSR sort gate): low polyreactivity

ordered_residues: QVQLVESRAGLVQAGGSLRLSCAASGSTRNRNVMGWYRPAPGKERELVAVITYGVGSTYYADSVKGRFTISRDNAKNTVYLQMNSLKPEDTAVYYCNKDPLVFDYWAQGTQVTVSS
polyreactivity (PSR sort gate): low polyreactivity
